test system: Wild type; test: S. aureus survival, RN4220 and DeltatarO strains – OD600, teichoic acid synthesis inhibitors, primary screen (AID 463173); conditions: S. aureus RN4220 wild type/DeltatarO growth, OD600, 18 h, stronger effect = lower value, screened at 18.75 µg/mL (by protocol)
About 1,700 (3.3%) of roughly 52,000 compounds were called active. Many of the other results were omitted from the sample, so actives are more common in it than they were.
readout type: survival (%)
Give the number; % is assumed, so skip it.

Find the recorded survival belonging to "CCc1ccccc1NS(=O)(=O)c1ccc2[nH]cc(C(=O)NC3CCCC3)c(=O)c2c1" and report it.
42

Further, for "Cc1cccc(N2CCN(S(=O)(=O)c3cn(C)c(C)n3)CC2)c1C" ?
-3

Request: "COc1cccc(C(=O)Nc2nc(-c3nnn(-c4ccccc4C(F)(F)F)c3C)ns2)c1"
76

Continue with "Cc1c(-c2nsc(NC(=O)c3ccccc3)n2)nnn1-c1ccc(C(F)(F)F)c(Cl)c1"
80

Next up: "COc1cccc(C(=O)Nc2nc(-c3nnn(-c4cc(C)ccc4C)c3C)ns2)c1"
72

Continue with "Cc1c(-c2nsc(NC(=O)c3cccc(Cl)c3)n2)nnn1-c1ccccc1C(F)(F)F"
-6

Then this compound: "Cc1cc(C)cc(NS(=O)(=O)c2ccc3[nH]cc(C(=O)N(C)Cc4ccccc4)c(=O)c3c2)c1"
111

Please do the same for "Cc1ccc(C)c(N2CCN(S(=O)(=O)c3cn(C)c(C)n3)CC2)c1" as well.
68

Consider next the compound "Cc1ccc(C(=O)Nc2nc(-c3nnn(-c4cccc(Cl)c4C)c3C)ns2)cc1C" in the same way.
136

###

Kindly supply the reported survival values for the records listed here.
system: Wild type; assay: S. aureus survival, RN4220 and DeltatarO strains – OD600, teichoic acid synthesis inhibitors, primary screen (AID 463173); details: S. aureus RN4220 wild type/DeltatarO growth, OD600, 18 h, stronger effect = lower value, screened at 18.75 µg/mL (by protocol)
The campaign covered roughly 52,000 compounds. About 1,700 (3.3%) were called active. Many of the other results were omitted from the sample, so actives are more common in it than they were.
Hi! Could you send only the number? It should be in %, unit omitted.

Would you mind telling me what survival value was observed for "CCOC(=O)c1c(Nc2ccc(O)cc2)nnc(-c2ccccc2)c1-c1ccccc1" ?
96

And the next one, "Cc1ccc(C(=O)Nc2c(C(=O)NC(C)(C)C)oc3ccccc23)cc1" ?
0

Continue with "CN(C)c1ccc(C(=O)Nc2c(C(=O)NC(C)(C)C)oc3ccccc23)cc1"
65

Also need "CC(=O)Nc1nonc1-c1nnc(SCC(=O)Nc2ccccc2)n1-c1ccccc1" , thanks.
51

What about "Nc1cccc(-c2cn3ccsc3n2)c1" ?
55

Now give it for "CCOC(=O)c1c(Oc2ccc(C(=O)OC)cc2)nnc(-c2ccccc2)c1-c1ccccc1" too.
87

Record: "CC(C)c1cc2cc(/C=C/C(=O)O)c(O)cc2o1"
39

Similarly, "Nc1ccc2c(c1)ncn2CCO" ?
115

One more compound: "Cc1ccc(NC(=O)c2oc3ccccc3c2NC(=O)C2CCCCC2)cc1"
4

Param item: O=C(NC1CCCCCC1)c1ccc(CS(=O)c2ccc(Br)cc2)o1 (stereo unspecified)
94

Follow-up item: "CCc1ccc(-n2c(Cc3ccccc3)nnc2SCc2nc(-c3cccs3)no2)cc1"
99

All figures here come from PubChem BioAssay AID463173.
